- Test system: Mycobacterium tuberculosis H37RV
- protocol: In vitro antitubercular activity by MABA (Alamar Blue)
- Format: cell-based
- runParameters: Mycobacterium tuberculosis, H37RV, 120 h, Mycobacterium tuberculosis H37RV, MABA, Middlebrook 7H9 broth, 37°C five days; read-out: H37RV MIC
The entries below come with measured MIC values attached.
measurementLabel: MIC (µM)

compound="N#CC1=C(N)OC(c2ccc(OC(F)(F)F)cc2)=CC1c1cccc(Cl)c1 (stereo not shown) [Compound 52]" measurementlabel=MIC recordedresult=127
compound="N#CC1=C(N)OC(c2ccc(C(F)(F)F)cc2)=CC1c1ccc([N+](=O)[O-])cc1 (stereo not shown) [Compound 49]" measurementlabel=MIC recordedresult=151
compound="N#Cc1c(-c2cccc(Cl)c2)cc(-c2ccc(C(F)(F)F)cc2)nc1N [Compound 22]" measurementlabel=MIC recordedresult=134
compound="N#Cc1c(-c2ccc([N+](=O)[O-])cc2)cc(-c2ccc(C(F)(F)F)cc2)nc1N [Compound 29]" measurementlabel=MIC recordedresult=152
compound="N#CC1=C(N)OC(c2ccc(OC(F)(F)F)cc2)=CC1c1c[nH]c2ccccc12 (stereo not shown) [Compound 53]" measurementlabel=MIC recordedresult=29

----------
In this section, each of the molecules is paired with its reported MIC.
- Test system: Mycobacterium tuberculosis H37RV
- protocol: In vitro antitubercular activity by MABA (Alamar Blue)
- Assay type: cell-based
- runParameters: Mycobacterium tuberculosis, H37RV, 120 h, Mycobacterium tuberculosis H37RV, MABA, Middlebrook 7H9 broth, 37°C five days; read-out: H37RV MIC
measurementLabel: MIC (µM)

molecule="N#Cc1c(-c2cccs2)cc(-c2ccc(OC(F)(F)F)cc2)nc1N [Compound 37]" unitspec=µM recordedresult=17
molecule="N#Cc1c(-c2cccc(Cl)c2Cl)cc(-c2ccc(OC(F)(F)F)cc2)nc1N [Compound 31]" unitspec=µM recordedresult=32
molecule="N#CC1=C(N)OC(c2ccc(C(F)(F)F)cc2)=CC1c1cccs1 (stereo not shown) [Compound 46]" unitspec=µM recordedresult=32
molecule="N#CC1=C(N)OC(c2ccc(C(F)(F)F)cc2)=CC1c1ccccc1[N+](=O)[O-] (stereo not shown) [Compound 44]" unitspec=µM recordedresult=32

----------
Each entry below carries its reported MIC.
- Tested on: Mycobacterium tuberculosis H37RV
- protocol: In vitro antitubercular activity by MABA (Alamar Blue)
- Type: cell-based
- runParameters: Mycobacterium tuberculosis, H37RV, 120 h, Mycobacterium tuberculosis H37RV, MABA, Middlebrook 7H9 broth, 37°C five days; read-out: H37RV MIC
measurementLabel: MIC (µM)

compound=O=C(/C=C/c1cccc(Cl)c1Cl)c1ccc(OC(F)(F)F)cc1 recordedresult=153
compound="N#CC1=C(N)OC(c2ccc(C(F)(F)F)cc2)=CC1c1cccc([N+](=O)[O-])c1 (centres unmarked)" recordedresult=129
compound="N#CC1=C(N)OC(c2ccc(OC(F)(F)F)cc2)=CC1c1ccco1 (centres unmarked)" recordedresult=34
compound=O=C(/C=C/c1ccc(Cl)cc1)c1ccc(OC(F)(F)F)cc1 recordedresult=177
compound="N#CC1=C(N)OC(c2ccc(OC(F)(F)F)cc2)=CC1c1ccc([N+](=O)[O-])cc1 (centres unmarked)" recordedresult=144
compound=O=C(/C=C/c1cccs1)c1ccc(OC(F)(F)F)cc1 recordedresult=148
compound="N#CC1=C(N)OC(c2ccc(OC(F)(F)F)cc2)=CC1c1ccc(Cl)cc1 (centres unmarked)" recordedresult=36
compound="N#CC1=C(N)OC(c2ccc(C(F)(F)F)cc2)=CC1c1ccco1 (centres unmarked)" recordedresult=36
compound=N#Cc1c(-c2c[nH]c3ccccc23)cc(-c2ccc(C(F)(F)F)cc2)nc1N recordedresult=31
compound="N#CC1=C(N)OC(c2ccc(C(F)(F)F)cc2)=CC1c1ccc(Cl)cc1 (centres unmarked)" recordedresult=38
compound=O=C(/C=C/c1ccc[nH]1)c1ccc(OC(F)(F)F)cc1 recordedresult=38
compound=O=C(/C=C/c1cccc([N+](=O)[O-])c1)c1ccc(OC(F)(F)F)cc1 recordedresult=148
compound=O=C(/C=C/c1ccco1)c1ccc(OC(F)(F)F)cc1 recordedresult=168
compound="N#CC1=C(N)OC(c2ccc(C(F)(F)F)cc2)=CC1c1c[nH]c2ccccc12 (centres unmarked)" recordedresult=30
compound=O=C(/C=C/c1cccc(Cl)c1)c1ccc(OC(F)(F)F)cc1 recordedresult=153
compound=O=C(/C=C/c1ccc([N+](=O)[O-])cc1)c1ccc(OC(F)(F)F)cc1 recordedresult=178
compound="N#CC1=C(N)OC(c2ccc(OC(F)(F)F)cc2)=CC1c1cccs1 (centres unmarked)" recordedresult=31
compound=N#Cc1c(-c2ccccc2[N+](=O)[O-])cc(-c2ccc(C(F)(F)F)cc2)nc1N recordedresult=33
compound=N#Cc1c(-c2ccc(Cl)cc2)cc(-c2ccc(OC(F)(F)F)cc2)nc1N recordedresult=36
compound=O=C(/C=C/c1cccc(Cl)c1)c1ccc(C(F)(F)F)cc1 recordedresult=161
compound=O=C(/C=C/c1ccccc1Cl)c1ccc(C(F)(F)F)cc1 recordedresult=40
compound="N#CC1=C(N)OC(c2ccc(C(F)(F)F)cc2)=CC1c1cccc(Cl)c1 (centres unmarked)" recordedresult=133
compound=O=C(/C=C/c1ccc(Cl)cc1)c1ccc(C(F)(F)F)cc1 recordedresult=188
compound=N#Cc1c(-c2cccc(Cl)c2)cc(-c2ccc(OC(F)(F)F)cc2)nc1N recordedresult=128
compound="N#CC1=C(N)OC(c2ccc(OC(F)(F)F)cc2)=CC1c1ccccc1[N+](=O)[O-] (centres unmarked)" recordedresult=31
compound=O=C(/C=C/c1cccs1)c1ccc(C(F)(F)F)cc1 recordedresult=156
compound=N#Cc1c(-c2ccc([N+](=O)[O-])cc2)cc(-c2ccc(OC(F)(F)F)cc2)nc1N recordedresult=145
compound=N#Cc1c(-c2cccc([N+](=O)[O-])c2)cc(-c2ccc(OC(F)(F)F)cc2)nc1N recordedresult=125
compound=O=C(/C=C/c1ccc([N+](=O)[O-])cc1)c1ccc(C(F)(F)F)cc1 recordedresult=189
compound=N#Cc1c(-c2ccccc2[N+](=O)[O-])cc(-c2ccc(OC(F)(F)F)cc2)nc1N recordedresult=31

----------
- protocol: MTT cytotoxicity assay
- Format: cell-based
- runParameters: LO2 normal liver cells, human normal liver cells (L02), mean of three experiments
measurementLabel: IC50

smilesstring=N#Cc1c(-c2c[nH]c3ccccc23)cc(-c2ccc(OC(F)(F)F)cc2)nc1N recordedresult="> 70 µg/mL"

----------
- Tested on: Mycobacterium tuberculosis H37RV
- protocol: In vitro antitubercular activity by MABA (Alamar Blue)
- Type: cell-based
- runParameters: Mycobacterium tuberculosis, H37RV, 120 h, Mycobacterium tuberculosis H37RV, MABA, Middlebrook 7H9 broth, 37°C five days; read-out: H37RV MIC
Measured MIC values are reported for all entries that follow.
measurementLabel: MIC (µM)

smilesstring=O=C(/C=C/c1ccccc1[N+](=O)[O-])c1ccc(C(F)(F)F)cc1 unitspec=µM recordedresult=156
smilesstring=O=C(/C=C/c1c[nH]c2ccccc12)c1ccc(OC(F)(F)F)cc1 unitspec=µM recordedresult=138
smilesstring=O=C(/C=C/c1ccc[nH]1)c1ccc(C(F)(F)F)cc1 unitspec=µM recordedresult=40

----------
- System: Mycobacterium tuberculosis H37RV
- protocol: In vitro antitubercular activity by MABA (Alamar Blue)
- Type: cell-based
- runParameters: Mycobacterium tuberculosis, H37RV, 120 h, Mycobacterium tuberculosis H37RV, MABA, Middlebrook 7H9 broth, 37°C five days; read-out: H37RV MIC
The entries below come with measured MIC values attached.
measurementLabel: MIC

molecule="NC(=O)c1cnccn1 [Pyrazinamide, reference compound]" measurementlabel=MIC recordedresult="~25 µM"
molecule="N#CC1=C(N)OC(c2ccc(OC(F)(F)F)cc2)=CC1c1ccc[nH]1 (centres unmarked)" measurementlabel=MIC recordedresult="16 to 18 µM"
molecule="O=C(O)c1cn(C2CC2)c2cc(N3CCNCC3)c(F)cc2c1=O [Ciprofloxacin, reference compound]" measurementlabel=MIC recordedresult="~9 µM"
molecule="N#CC1=C(N)OC(c2ccc(C(F)(F)F)cc2)=CC1c1ccc[nH]1 (centres unmarked)" measurementlabel=MIC recordedresult="16 to 18 µM"
molecule="N#CC1=C(N)OC(c2ccc(C(F)(F)F)cc2)=CC1c1ccccc1Cl (centres unmarked)" measurementlabel=MIC recordedresult="16 to 18 µM"

FYI, the data here is from paper PMC9202851.
